For each record, write down the corresponding Stability of Plant-Derived Cannabinoid Compounds in AB White, 8° C..
experiment: Stability of cannabinoid compounds and Vitamin E components in Beverage 1 (AB White) by LCMSMS; format: physicochemical; conditions: AB White stored at 8° C.; 19 days
One number for each entry, in µg/mL.

Please review the entries below; each comes with its answer.
>>> df
                                   molecule  scale_unit  value
0  CCCCCc1cc(O)c(C/C=C(\C)CCC=C(C)C)c(O)c1 [CBG, cannabigerol]       µg/mL   4.83
1  C=C(C)[C@@H]1CCC(C)=C[C@H]1c1c(O)cc(CCC)cc1O [CBDV, cannabidivarin]       µg/mL  0.149
2  CCCCCc1cc(O)c2c(c1)OC1(C)CCC3C1C2C3(C)C (stereo not shown) [CBL, cannabicyclol]       µg/mL  0.537
3  C=C(C)[C@@H]1CCC(C)=C[C@H]1c1c(O)cc(CCCCC)cc1O [CBD, cannabidiol, reference compound]       µg/mL  28.36

Batch request: Stability of Plant-Derived Cannabinoid Compounds in AB White, 8° C. for each of the following molecules.
1. CCCCCc1cc(O)c2c(c1)OC(C)(C)[C@@H]1CCC(C)=C[C@@H]21 [D9 THC, delta-9-tetrahydrocannabinol, reference compound]
2. CCCCCc1cc2c(c(O)c1C(=O)O)[C@@H]1C=C(C)CC[C@H]1C(C)(C)O2 [D9 THCA, delta-9-tetrahydrocannabinolic acid]
3. C=C(C)[C@@H]1CCC(C)=C[C@H]1c1c(O)cc(CCCCC)c(C(=O)O)c1O [CBDA, cannabidiolic acid]
4. CCCCCc1cc(O)c2c(c1)OC(C)(CCC=C(C)C)C=C2 (stereo not shown) [CBC, cannabichromene]
5. CCCc1cc(O)c2c(c1)OC(C)(C)[C@@H]1CCC(C)=C[C@@H]21 [THCV, delta-9-tetrahydrocannabivarin]
6. CCCCCc1cc(O)c2c(c1)OC(C)(C)c1ccc(C)cc1-2 [CBN, cannabinol]

Result:
1: 12.11; 2: 0.959; 3: 1.74; 4: 0.317; 5: 3.51; 6: 2.71

----------
assay: Stability of cannabinoid compounds and Vitamin E components in Beverage 1 (AB White) by LCMSMS; assay type: physicochemical; conditions: AB White stored at 8° C.; 30 days
measurement.name: Stability of Plant-Derived Cannabinoid Compounds in AB White, 8° C. (µg/mL)
Answers are plain numbers, in µg/mL.

Record Stability of Plant-Derived Cannabinoid Compounds in AB White, 8° C. for all entries; do not skip any.
1. C=C(C)[C@@H]1CCC(C)=C[C@H]1c1c(O)cc(CCCCC)c(C(=O)O)c1O
2. CCCCCc1cc(O)c2c(c1)OC(C)(C)c1ccc(C)cc1-2
3. CCCCCc1cc(O)c(C/C=C(\C)CCC=C(C)C)c(O)c1

Result:
1.76
2.78
4.79

----------
assay: Stability of cannabinoid compounds and Vitamin E components in Beverage 1 (AB White) by LCMSMS; type: physicochemical; settings: AB White stored at 21-25° C.; 8 days
measurement.name: Stability of Plant-Derived Cannabinoid Compounds in AB White, 21-25° C. (µg/mL)
Give bare numbers, in µg/mL.

Example entries begin here.
>>> df
                                   compound  value
0   CCCCCc1cc(O)c(C/C=C(\C)CCC=C(C)C)c(O)c1   4.90
1  C=C(C)[C@@H]1CCC(C)=C[C@H]1c1c(O)cc(CCC)cc1O  0.145
2  CCCCCc1cc(O)c2c(c1)OC(C)(CCC=C(C)C)C=C2 (stereo not drawn)  0.319
3  CCCCCc1cc(O)c2c(c1)OC(C)(C)[C@@H]1CCC(C)=C[C@@H]21 [D9 THC, delta-9-tetrahydrocannabinol, reference compound]   12.3
4  CCCCCc1cc(O)c2c(c1)OC1(C)CCC3C1C2C3(C)C (stereo not drawn)  0.542

# batch: return Stability of Plant-Derived Cannabinoid Compounds in AB White, 21-25° C. for each of the 4 compounds below
1. CCCCCc1cc2c(c(O)c1C(=O)O)[C@@H]1C=C(C)CC[C@H]1C(C)(C)O2 [D9 THCA, delta-9-tetrahydrocannabinolic acid]
2. C=C(C)[C@@H]1CCC(C)=C[C@H]1c1c(O)cc(CCCCC)c(C(=O)O)c1O
3. CCCc1cc(O)c2c(c1)OC(C)(C)[C@@H]1CCC(C)=C[C@@H]21 [THCV, delta-9-tetrahydrocannabivarin]
4. CCCCCc1cc(O)c2c(c1)OC(C)(C)c1ccc(C)cc1-2

Result:
0.937
1.77
3.63
2.71

----------
test: Stability of cannabinoid entourage and Vitamin E components of the powder concentrate by LCMSMS; format: physicochemical; details: powder stored at 21-25° C.; 60 days
measurement.name: Stability of Plant-Derived Cannabinoid Compounds in Powder Concentrate

Solved cases (3 shown):
>>> print(df.to_string())
                                   compound              value
0  C=C(C)[C@@H]1CCC(C)=C[C@H]1c1c(O)cc(CCCCC)c(C(=O)O)c1O  0.418 mg/g powder
1  CCCCCc1cc(O)c2c(c1)OC(C)(CCC=C(C)C)C=C2 (stereo not shown)  0.068 mg/g powder
2  CCCCCc1cc2c(c(O)c1C(=O)O)[C@@H]1C=C(C)CC[C@H]1C(C)(C)O2 [D9 THCA, delta-9-tetrahydrocannabinolic acid]  0.146 mg/g powder

State recorded Stability of Plant-Derived Cannabinoid Compounds in Powder Concentrate for all listed compounds.
1. C=C(C)[C@@H]1CCC(C)=C[C@H]1c1c(O)cc(CCC)cc1O
2. CCCCCc1cc(O)c2c(c1)OC1(C)CCC3C1C2C3(C)C (stereo not shown)
3. CCCCCc1cc(O)c(C/C=C(\C)CCC=C(C)C)c(O)c1
4. CCCc1cc(O)c2c(c1)OC(C)(C)[C@@H]1CCC(C)=C[C@@H]21 [THCV, delta-9-tetrahydrocannabivarin]
5. C=C(C)[C@@H]1CCC(C)=C[C@H]1c1c(O)cc(CCCCC)cc1O [CBD, cannabidiol, reference compound]
6. CCCCCc1cc(O)c2c(c1)OC(C)(C)[C@@H]1CCC(C)=C[C@@H]21 [D9 THC, delta-9-tetrahydrocannabinol, reference compound]
7. CCCCCc1cc(O)c2c(c1)OC(C)(C)c1ccc(C)cc1-2

Result:
1: 0.050 mg/g powder; 2: 0.050 mg/g powder; 3: 1.11 mg/g powder; 4: 0.702 mg/g powder; 5: 5.66 mg/g powder; 6: 2.66 mg/g powder; 7: 0.489 mg/g powder

----------
assay: Stability of cannabinoid entourage and Vitamin E components of the powder concentrate by LCMSMS; format: physicochemical; settings: powder stored at 21-25° C.; 270 days
measurement.name: Stability of Plant-Derived Cannabinoid Compounds in Powder Concentrate (mg/g powder)
Answers are plain numbers, in mg/g powder.

Please review the entries below; each comes with its answer.
>>> df
                                   compound  value
0  C=C(C)[C@@H]1CCC(C)=C[C@H]1c1c(O)cc(CCCCC)c(C(=O)O)c1O [CBDA, cannabidiolic acid]  0.424
1  CCCCCc1cc(O)c2c(c1)OC(C)(C)c1ccc(C)cc1-2 [CBN, cannabinol]  0.464
2  CCCCCc1cc(O)c2c(c1)OC(C)(C)[C@@H]1CCC(C)=C[C@@H]21 [D9 THC, delta-9-tetrahydrocannabinol, reference compound]   2.47
3  CCCCCc1cc(O)c(C/C=C(\C)CCC=C(C)C)c(O)c1 [CBG, cannabigerol]   1.15
4  CCCCCc1cc2c(c(O)c1C(=O)O)[C@@H]1C=C(C)CC[C@H]1C(C)(C)O2 [D9 THCA, delta-9-tetrahydrocannabinolic acid]  0.148

Could you tell me Stability of Plant-Derived Cannabinoid Compounds in Powder Concentrate for each of these compounds? They are listed below.
1. CCCCCc1cc(O)c2c(c1)OC1(C)CCC3C1C2C3(C)C (stereo not shown) [CBL, cannabicyclol]
2. C=C(C)[C@@H]1CCC(C)=C[C@H]1c1c(O)cc(CCC)cc1O [CBDV, cannabidivarin]
3. CCCc1cc(O)c2c(c1)OC(C)(C)[C@@H]1CCC(C)=C[C@@H]21 [THCV, delta-9-tetrahydrocannabivarin]
4. C=C(C)[C@@H]1CCC(C)=C[C@H]1c1c(O)cc(CCCCC)cc1O [CBD, cannabidiol, reference compound]
5. CCCCCc1cc(O)c2c(c1)OC(C)(CCC=C(C)C)C=C2 (stereo not shown) [CBC, cannabichromene]

Result:
0.051
0.051
0.670
5.72
0.072

----------
Give measured Stability of Plant-Derived Cannabinoid Compounds in AB White, 8° C. for each item. Keep answers brief.
experiment: Stability of cannabinoid compounds and Vitamin E components in Beverage 1 (AB White) by LCMSMS; type: physicochemical; conditions: AB White stored at 8° C.; 270 days
Numbers only, in µg/mL.

Before answering, review these 5 worked examples.
                                   molecule  value
0  CCCCCc1cc(O)c2c(c1)OC(C)(CCC=C(C)C)C=C2 (stereo not drawn)  0.316
1  CCCc1cc(O)c2c(c1)OC(C)(C)[C@@H]1CCC(C)=C[C@@H]21 [THCV, delta-9-tetrahydrocannabivarin]   3.47
2  CCCCCc1cc2c(c(O)c1C(=O)O)[C@@H]1C=C(C)CC[C@H]1C(C)(C)O2 [D9 THCA, delta-9-tetrahydrocannabinolic acid]  0.933
3  C=C(C)[C@@H]1CCC(C)=C[C@H]1c1c(O)cc(CCCCC)cc1O [CBD, cannabidiol, reference compound]  28.07
4  CCCCCc1cc(O)c2c(c1)OC(C)(C)[C@@H]1CCC(C)=C[C@@H]21 [D9 THC, delta-9-tetrahydrocannabinol, reference compound]  11.98

Ask: Bench note: what Stability of Plant-Derived Cannabinoid Compounds in AB White, 8° C. did CCCCCc1cc(O)c2c(c1)OC(C)(C)c1ccc(C)cc1-2 show?
Result: 2.75
